Test system: Malme-3M
Test: NCI tumour cell line growth inhibition, 48 h
Activity calls are given as the source filed them. Rule as the data show it: active = GI50 up to about 1.1 µM and inactive = higher.
property: GI50

Examples with answers:
[
  {
    "molecule": "CCCCN(Cc1ccccc1)/C(=N/C#N)N(Cc1ccccc1)Cc1ccccc1",
    "reading": "8.59 µM (inactive)"
  },
  {
    "molecule": "CC(=O)c1[nH]c(NC(C)C)c(C(=S)Nc2ccccc2)c1N",
    "reading": "25.7 µM (inactive)"
  },
  {
    "molecule": "CCCC(CCC(=O)O)(CCC(=O)O)[N+](=O)[O-]",
    "reading": "> 100 µM (inactive)"
  },
  {
    "molecule": "CCOc1cc(C2CC(c3ccc(NS(=O)(=O)c4cc([N+](=O)[O-])ccc4C)cc3)=NN2C(=O)c2ccccc2)ccc1O (stereo not given)",
    "reading": "13.8 µM (inactive)"
  }
]

Shifting focus to the molecule that follows.
Name the reported GI50 value associated with the molecule COc1ccc(-c2nc3c(nc2-c2ccc(OC)cc2)C(N)=NS(=O)(=O)N3)cc1
> 100 µM (inactive)

###

Tested on: HOP-18
Test: NCI tumour cell line growth inhibition, 48 h
Activity calls are given as the source filed them. No stated cut-off is given here; in the data, active = GI50 up to about 1.1 µM and inactive = higher.
Give one outcome, nothing more. List: 1 = active, 0 = inactive

Example cases with answers are listed next.
[
  {
    "compound": "C1=CC(N(c2ccccc2)C2C=CCCC2)CCC1 (configuration not stated)",
    "cat": 0
  },
  {
    "compound": "O=C(/C=C/c1ccc(OCCCCCCCCCCOc2ccc(/C=C/C(=O)c3ccc(Cl)cc3)cc2)cc1)c1ccc(Cl)cc1",
    "cat": 0
  },
  {
    "compound": "CCC/C(=N\\NC(=S)N1CCN(c2ccccn2)CC1)c1ccccn1",
    "cat": 1
  }
]

Per the records of this test, what outcome belongs to C1CN1c1nc(N2CC2)nc(N2CC2)n1 ?
0

Look up the recorded call for O=C(/C=C/c1cc(Cl)cc(Cl)c1O)c1cccc(O)c1 in this test.
0

Outcome logged for Cn1c(=O)c(C(=O)NC(=O)NCCCCCOC(=O)CCCCCCCCCCC(=O)OCCCCCNC(=O)NC(=O)c2cn(Cc3ccccc3)c(=O)n(C)c2=O)cn(Cc2ccccc2)c1=O in this assay:
0

Hi team, can someone confirm the assay call for CN(C)C(=S)Nc1nnc(Nc2ccccc2)s1 ?
0

Record request — test call for CCc1cccc(C)c1NC(=O)C(=O)Cc1nc2ccccc2o1
0

Any idea what this test logged for CC(=O)c1ccc(NC(=O)C(=O)C(C(=O)/C=C/c2ccccc2)C2OC(=O)c3ccccc32)cc1 (configuration not stated) ?
0

Each compound tested received a call. Report the one for CC1(C)C(=O)N(c2ccccc2)C(=O)N1c1nc2ccccc2[nH]1 .
0

Called result for CCCCCN(CCCCC)C(=O)[C@@H](CCC(=O)OCc1ccccc1)NC(=O)c1cc2ccccc2[nH]1
0

Recorded call for C#CC1(O)c2ccccc2C(=O)c2ccccc21 ?
0

###

Test system: BT-549
Assay: NCI tumour cell line growth inhibition, 48 h
Calls of active or inactive are those of the source. No stated cut-off is given here; in the data, active = GI50 up to about 1.1 µM and inactive = higher.
The reply should be one of these categories: active, inactive

Take a look at these entries with their results.
[
  {
    "molecule": "COc1ccc(N[C@H](C[S+]([O-])c2ccc(C)cc2)C(F)(F)F)cc1 (some centres not stated)",
    "tested-system": "BT-549",
    "cat": "inactive"
  },
  {
    "molecule": "N/N=C(/CC(O)(C(F)(F)F)C(F)(F)F)c1ccccc1",
    "tested-system": "BT-549",
    "cat": "inactive"
  },
  {
    "molecule": "CC(C)(S)C(N)C(=O)O (configuration not stated)",
    "tested-system": "BT-549",
    "cat": "inactive"
  },
  {
    "molecule": "c1ccc(COc2ccc(C[P+](c3ccccc3)(c3ccccc3)c3ccccc3)cc2)cc1",
    "tested-system": "BT-549",
    "cat": "active"
  },
  {
    "molecule": "O=[N+]([O-])/C(Cl)=C(\\NCCO)C(Cl)=C(Cl)Cl",
    "tested-system": "BT-549",
    "cat": "inactive"
  }
]

Per the assay record, what outcome was assigned to C=C1C(=O)OC2CC3(CO3)C3C(O)C(O)CC3(C)CC12 (configuration not stated) ?
inactive

What classification did O=C(O)/C(Cc1c[nH]nn1)=N\O end up with in this test?
inactive

###

Test system: HCC 2998
Experiment: NCI tumour cell line growth inhibition, 48 h
Activity calls are given as the source filed them. Rule as the data show it: active = GI50 up to about 1.1 µM and inactive = higher.
Please provide measured GI50 for the entries that follow.

Below is a list of compounds. For each, state its recorded GI50.
1. c1ccc2c(c1)nnn2C1CCCCO1 (stereo not given)
2. CC(C)C(=O)[C@@]1(C)SC[C@H]2CCN=C21
3. C[C@H](N)C(=O)Nc1ccc(-c2nc3ccccc3s2)cc1Cl
4. COc1ccc2nc3cc([N+](=O)[O-])ccc3c(Nc3ccc(S(=O)(=O)NC(C)=O)cc3)c2c1
5. COc1ccc(C2C3=C(COC3=O)OC(C)(C)Oc3cc4c(cc32)OCO4)cc1OC (stereo not given)
6. O=C1Nc2ccccc2C12CCNC2Cc1ccccc1 (stereo not given)

1: > 100 µM (inactive); 2: > 100 µM (inactive); 3: 0.56 µM (active); 4: 56.6 µM (inactive); 5: 78 µM (inactive); 6: > 100 µM (inactive)

List the reported GI50 of each compound below.
1. CC(=O)OC12c3ccccc3-c3ccccc3C1C1C(=O)N(C)C(=O)C12Cl (stereo not given)
2. [N-]=[N+]=C1C(=O)c2ccccc2-c2ccccc21
3. CC(=O)O[C@H]1C(=O)[C@@]2(C)C(C(OC(=O)c3ccccc3)[C@]3(O)CC(OC(=O)C(O)C(NC(=O)c4ccccc4)c4cccc(Cl)c4)C(C)=C1C3(C)C)[C@]1(OC(C)=O)CO[C@@H]1C[C@@H]2O (stereo not given in full)
4. CC(C(=O)OCc1ccccc1)(c1ccco1)N1C(=O)OC(c2ccccc2)C1c1ccccc1 (stereo not given)

1: > 10 µM (inactive); 2: 51.3 µM (inactive); 3: 4.67 µM (inactive); 4: > 100 µM (inactive)

###

System: COLO 205
Assay: NCI tumour cell line growth inhibition, 48 h
Calls of active or inactive are those of the source. Cut-off read from the data, not from the text of the source: active = GI50 up to about 1.1 µM and inactive = higher.
Your answer must be one of the following: active, inactive

Solved entries (count: 10):
[
  {
    "compound": "ClCCN1CCC2(CC1)SSC1(CCN(CCCl)CC1)S2",
    "cat": "inactive"
  },
  {
    "compound": "CC1SC2=NC3=C(c4ccccc4C3=O)C(c3ccc(Br)cc3)N2C1=O (centres undefined)",
    "cat": "inactive"
  },
  {
    "compound": "CC(=O)Nc1ccc(-c2nnc(SCC(=O)Nc3ccccc3C)o2)cc1",
    "cat": "inactive"
  },
  {
    "compound": "COC(=O)c1cccc2cccc(C(=O)Nc3ccc(C)cc3C)c12",
    "cat": "inactive"
  },
  {
    "compound": "COc1ccc2c(c1)C(N)=C(Cc1ccncc1)C2=O",
    "cat": "inactive"
  },
  {
    "compound": "COC(=O)/C=C/c1cc(OC)c(OC)c(OC)c1",
    "cat": "inactive"
  },
  {
    "compound": "Cc1ccc(S(=O)(=O)NC(=O)NCC(N)=O)cc1",
    "cat": "inactive"
  },
  {
    "compound": "COC(=O)C1CCCCCCCCCCC12SCCCS2 (centres undefined)",
    "cat": "inactive"
  },
  {
    "compound": "CCCCCCOc1ccc(C(=O)NOC)cc1",
    "cat": "inactive"
  },
  {
    "compound": "OC1/C(=C/c2ccccc2)CNC/C1=C\\c1ccccc1 (centres undefined)",
    "cat": "inactive"
  }
]

Tell me the assay call for CC(C)(C)OC(=O)CCC1NC(=O)[C@@H]2Cc3c([nH]c4ccccc34)C(C3CCCCC3)N2C1=O (some centres undefined) please.
inactive

I'd appreciate the recorded outcome for Cc1ccc([S+]([O-])c2cccs2)cc1 (centres undefined) from this test.
inactive

In this assay, the call recorded for C[N+](C)([O-])CCCNc1c2ccccc2nc2cccc([N+](=O)[O-])c12 was what?
active

Please indicate how the test categorized C[C@H](N)C(=O)Nc1ccc(-c2nc3ccccc3s2)cc1Cl .
inactive

###

Test system: SR
Assay: NCI tumour cell line growth inhibition, 48 h
The source made the active and inactive calls. Rule as the data show it: active = GI50 up to about 1.1 µM and inactive = higher.
property: GI50

[
  {
    "compound": "COc1c(O)cc2oc(-c3ccc(O)cc3)cc(=O)c2c1O",
    "tested-system": "SR",
    "property": "GI50",
    "reading": "27.9 µM (inactive)"
  },
  {
    "compound": "N#Cc1cc2c(n(C3OC(CO)C(O)C(O)C3O)c1=S)CCCCC2 (centres undefined)",
    "tested-system": "SR",
    "property": "GI50",
    "reading": "> 100 µM (inactive)"
  },
  {
    "compound": "COC(CN(C)C(=O)C(C)NC(=O)c1ccccc1)OC (centres undefined)",
    "tested-system": "SR",
    "property": "GI50",
    "reading": "> 100 µM (inactive)"
  }
]

// switching to the query compound
Report GI50 for CCCCCCOc1ccc(C(=O)NOC)cc1 please.
62.5 µM (inactive)
